- Study system: T1, hFcRn on hFcRn-expressing HEK293 cells (human, UniProt P55899 24-365; P61769 21-119)
- T1 construct: whole, on cells; also called hFcRn HEK293
- T1 sequence (P55899 24-365 limits assumed, chain 1 of 2): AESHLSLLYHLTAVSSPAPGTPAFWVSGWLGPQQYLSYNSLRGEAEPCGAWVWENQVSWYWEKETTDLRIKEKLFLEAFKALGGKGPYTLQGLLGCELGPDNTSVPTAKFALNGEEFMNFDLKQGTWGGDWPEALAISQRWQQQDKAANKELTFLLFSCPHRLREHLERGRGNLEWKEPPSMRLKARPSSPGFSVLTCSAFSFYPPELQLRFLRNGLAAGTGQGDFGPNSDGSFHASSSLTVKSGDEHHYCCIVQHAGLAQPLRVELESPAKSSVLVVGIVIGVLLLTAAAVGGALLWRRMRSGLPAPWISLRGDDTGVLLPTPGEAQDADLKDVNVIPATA
- T1 sequence (P61769 21-119 limits assumed, chain 2 of 2): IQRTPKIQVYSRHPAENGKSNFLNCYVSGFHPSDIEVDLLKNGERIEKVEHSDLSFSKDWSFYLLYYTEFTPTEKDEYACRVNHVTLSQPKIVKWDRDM
- Method summary: FACS on hFcRn HEK293 cells, pH 6.0; head prints 'FACS binding (EC50, nM)', taken as blocking of competitor Alexa488-hIgG1 (Example 4.5)
Reported endpoint: pEC50
Scale: negative log10 of molar concentration, which is what pEC50 denotes.

Inquiry: Return reported pEC50. Input binder: HL161AN variant No. 3 (LC:N25S, HC:Q82S) (antibody, human IgG1, V domains shown, Variable domains only) VL: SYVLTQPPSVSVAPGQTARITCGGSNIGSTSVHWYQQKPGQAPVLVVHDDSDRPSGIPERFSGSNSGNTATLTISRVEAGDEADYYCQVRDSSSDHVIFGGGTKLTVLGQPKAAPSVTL VH: EVQLLESGGGLVQPGGSLRLSCAASEFTFGSCVMTWVRQAPGKGLEWVSVISGSGGSTYYADSVKGRFTISRDNSKNTLYLSMNSLRAEDTAVYYCAKTPWWLRSPFFDYWGQGTLVTVSS
Reply text: 8.85

The measurements presented in this section are drawn from patent US20230391876A1.
